target: 5-lipoxygenase (Solanum tuberosum); assay: Inhibition of 5-lipoxygenase
pIC50: −log10 of the molar value.
Item-by-item account of pIC50

[in] Any idea what its pIC50 is? The compound is `COc1cc(/C=C/C(=O)c2ccc(OCC=C(C)C)cc2OCC=C(C)C)cc(OC)c1OC`
[out] 5.40

[in] Consider the compound `COc1ccc(/C=C/C(=O)c2ccc(OCC=C(C)C)cc2O)cc1` and give its measured pIC50.
[out] < 4.00

[in] Endpoint output: pIC50 of `COc1cc(/C=C/C(=O)c2ccc(OCC=C(C)C)cc2O)cc(OC)c1OC` . Value?
[out] < 4.00

[in] // pIC50 lookup, key: `COc1cccc(/C=C/C(=O)c2ccc(OCC=C(C)C)cc2O)c1OC`
[out] < 4.00

[in] Given `COc1ccc(/C=C/C(=O)c2ccc(OCC=C(C)C)cc2O)cc1OC` , state its recorded pIC50.
[out] < 4.00

[in] Please report the recorded pIC50 for `COc1ccc(/C=C/C(=O)c2ccc(OCC=C(C)C)cc2OCC=C(C)C)cc1OC` .
[out] 5.05

[in] So what does the record say about pIC50 for `COc1ccc(/C=C/C(=O)c2ccc(OCC=C(C)C)cc2O)c(OC)c1OC` ?
[out] < 4.00

[in] Give its pIC50 value. Item: `COc1ccc(/C=C/C(=O)c2ccc(OCC=C(C)C)cc2OCC=C(C)C)c(OC)c1OC`
[out] 4.31

====

system: COLO 205; assay: Cytotoxicity against human COLO205 cells after 24 hrs by MTT assay; type: functional; details: COLO 205, 24 h
quantity-measured: GI50 (µM)
Respond numerically; units are µM and should not be typed.

Here are 4 molecules together with their reported answers.
test-smiles: COc1cc(/C=C/C(=O)c2ccc(OCC=C(C)C)cc2OCC=C(C)C)cc(OC)c1OC
assayed-target: COLO 205
measurement-units: µM
GI50: 78
--
test-smiles: COc1ccc(/C=C/C(=O)c2ccc(OCC=C(C)C)cc2OCC=C(C)C)cc1
assayed-target: COLO 205
measurement-units: µM
GI50: 97
--
test-smiles: COc1cc(/C=C/C(=O)c2ccc(OCC=C(C)C)cc2O)cc(OC)c1OC
assayed-target: COLO 205
measurement-units: µM
GI50: 96
--
test-smiles: COc1ccc(/C=C/C(=O)c2ccc(OCC=C(C)C)cc2OCC=C(C)C)cc1OC
assayed-target: COLO 205
measurement-units: µM
GI50: 90

[in] Reported GI50, molecule `COc1cccc(/C=C/C(=O)c2ccc(OCC=C(C)C)cc2OCC=C(C)C)c1OC` : ____
[out] 99
